Provide the recorded mean nematode size ln(EXT) (ln) for the entries that follow.
- System: Caenorhabditis elegans N2
- assayRemarks: mean nematode size ln(EXT) after 48 h, plate-adjusted (DMSO control set to 6) (ln(EXT), control-adjusted); higher = larger nematodes / less growth inhibition
- conditionSummary: 50 µM; exposure time 48 h
Counter-ions that a name gives are not always drawn.

Record COCC(=O)N(c1c(C)cccc1C)C(C)C(=O)OC (stereo not given) [Metalaxyl] , field mean nematode size ln(EXT) (ln): 6.14

Record CN(C)c1ccc(C(=O)c2ccc(N(C)C)cc2)cc1 , field mean nematode size ln(EXT) (ln): 5.82

Record CN1CCC[C@H]1c1cccnc1 , field mean nematode size ln(EXT) (ln): 5.87

Record O=C(O)c1ccccc1-n1cc(C(=O)O)c(=O)c2cc(Nc3c(F)cc(F)cc3Cl)c(Cl)cc21 , field mean nematode size ln(EXT) (ln): 5.94

Record O=C(OC[C@H]1O[C@@H](OC(=O)c2cc(O)c(O)c(OC(=O)c3cc(O)c(O)c(O)c3)c2)[C@H](OC(=O)c2cc(O)c(O)c(OC(=O)c3cc(O)c(O)c(O)c3)c2)[C@@H](OC(=O)c2cc(O)c(O)c(OC(=O)c3cc(O)c(O)c(O)c3)c2)[C@@H]1OC(=O)c1cc(O)c(O)c(OC(=O)c2cc(O)c(O)c(O)c2)c1)c1cc(O)c(O)c(OC(=O)c2cc(O)c(O)c(O)c2)c1 , field mean nematode size ln(EXT) (ln): 5.86

Record O=C(O)Cn1c(=O)n(Cc2ccc(Br)cc2F)c(=O)c2ccc(Cl)cc21 , field mean nematode size ln(EXT) (ln): 5.77

Record Nc1ccn([C@@H]2O[C@H](CO)[C@@H](O)[C@@H]2O)c(=O)n1 [Cytarabine HCl] , field mean nematode size ln(EXT) (ln): 5.89

Record CCOc1cccc(-n2cc(C(=O)N3CCN(c4cc(C(=O)O)c5ccccc5c4)CC3)nc2-c2ccc(C)cc2)c1 , field mean nematode size ln(EXT) (ln): 4.84

Record C[N+]1(C)CCCCC1 [Mepiquat chloride] , field mean nematode size ln(EXT) (ln): 5.96

Record CCOC(=O)C(C)Oc1ccc(Oc2cnc3cc(Cl)ccc3n2)cc1 (stereo not given) , field mean nematode size ln(EXT) (ln): 5.33

Record CN(C)C(=O)Nc1ccc(Cl)cc1 , field mean nematode size ln(EXT) (ln): 5.86

Record O=[N+]([O-])c1ccc(Cl)cc1 , field mean nematode size ln(EXT) (ln): 6.01

Record CC(C)C1(C)N=C(c2ncccc2C(=O)O)NC1=O (stereo not given) , field mean nematode size ln(EXT) (ln): 5.9

Record O=C=NCCCCCCN=C=O , field mean nematode size ln(EXT) (ln): 5.94

Record OCCC(F)(F)C(F)(F)C(F)(F)C(F)(F)C(F)(F)C(F)(F)F , field mean nematode size ln(EXT) (ln): 5.91

Record ClC1C(Cl)C(Cl)C(Cl)C(Cl)C1Cl (stereo not given) , field mean nematode size ln(EXT) (ln): 5.74

Record N#Cc1nn(-c2c(Cl)cc(C(F)(F)F)cc2Cl)c(N)c1[S+]([O-])C(F)(F)F (stereo not given) , field mean nematode size ln(EXT) (ln): 5.59

Record CO/N=C(/C1=NOCCO1)c1ccccc1Oc1ncnc(Oc2ccccc2Cl)c1F , field mean nematode size ln(EXT) (ln): 5.65

Record CCCN(CC)CC1COC2(CCC(C(C)(C)C)CC2)O1 (stereo not given) , field mean nematode size ln(EXT) (ln): 5.84

Record COC(=O)c1ccc(I)cc1S(=O)(=O)NC(=O)Nc1nc(C)nc(OC)n1 [Iodosulfuron-methyl-sodium] , field mean nematode size ln(EXT) (ln): 6.15

Record CCOP(=O)(SC(C)CC)N1CCSC1=O (stereo not given) [Fosthiazate] , field mean nematode size ln(EXT) (ln): 5.94

Record COC(=O)CCCC(=O)OC [Dimethyl glutarate] , field mean nematode size ln(EXT) (ln): 6.01

Record Oc1ccc2ccccc2c1N=Nc1ccccc1 , field mean nematode size ln(EXT) (ln): 5.7

Record Oc1ccccc1Cl , field mean nematode size ln(EXT) (ln): 6.21

Record CCNc1nc(Cl)nc(NC(C)(C)C)n1 , field mean nematode size ln(EXT) (ln): 5.65

Record CC(C)c1cccc(C(C)C)c1 , field mean nematode size ln(EXT) (ln): 6.21

Record Nc1ccc2c(c1)C(=O)c1ccccc1C2=O , field mean nematode size ln(EXT) (ln): 5.75

Record CCCSP(=O)(OCC)SCCC , field mean nematode size ln(EXT) (ln): 4.81

Record CCCCCCCCCCCCCCCS(=O)(=O)Oc1ccccc1 , field mean nematode size ln(EXT) (ln): 5.93

Record CCC(C)(C)C(=O)OC1=C(c2ccc(Cl)cc2Cl)C(=O)OC12CCCCC2 , field mean nematode size ln(EXT) (ln): 4.53
